- Test system: Saccharomyces cerevisiae growth inhibition, permissive control
- method-summary: yeast lifespan-shortening chemical project counter-assay, dose-response inhibition of growth under permissive conditions (AID 850);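 also: growth read as optical density after one day of incubation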
Active and inactive are the calls of the source. No rule for the calls is given here.
measure-name: IC50

{"columns": ["compound", "measure-name", "obs-value"],
 "data": [
  ["COc1ccc(OC)c(C2CC(=O)N3CN(c4cccc(Cl)c4)CSC3=C2C#N)c1 (centres undefined)", "IC50", "> 100 µM (inactive)"],
  ["O=C(O)c1ccccc1Nc1ccc([N+](=O)[O-])cc1", "IC50", "14.6 µM"],
  ["Cc1ccc(-n2nnc3c(=O)n(CC(=O)N4CCC(C)CC4)cnc32)cc1", "IC50", "> 100 µM (inactive)"],
  ["COc1ccc2c(c1)[nH]c1c(Cl)ncnc12", "IC50", "> 100 µM (inactive)"],
  ["O=C1c2ccccc2NC(c2ccc(-c3cccc(Cl)c3)o2)N1O (centres undefined)", "IC50", "47.1 µM"],
  ["Nc1nonc1C(=O)NCCN=Cc1cc(Cc2ccccc2)cc(Br)c1O", "IC50", "> 100 µM (inactive)"],
  ["Clc1cccc(CN2COc3c(cc(Cl)c4cccnc34)C2)c1", "IC50", "6.88 µM"],
  ["CCC(C)NC(=O)C1CCN(S(=O)(=O)c2cccc3cccnc23)CC1 (centres undefined)", "IC50", "> 100 µM (inactive)"],
  ["CCCCSc1nc(C)c(C(C)=O)cc1C#N", "IC50", "> 100 µM (inactive)"],
  ["CCCCCCCCCCn1c2c(c(=N)c3c1CCC3)CCC2", "IC50", "12 µM"],
  ["CCOCC(=O)Nc1nc2c(s1)C(=O)CC(C)(C)C2", "IC50", "> 100 µM (inactive)"],
  ["CCCCCCCCCCCCCCCC[n+]1ccc(/C=N/O)cc1", "IC50", "1.07 µM"],
  ["O=S(=O)(Cc1ccccc1)NCc1cccnc1", "IC50", "> 100 µM (inactive)"],
  ["O=[N+]([O-])c1ccc(O)c(/C=N/Nc2ccccn2)c1", "IC50", "> 100 µM (inactive)"],
  ["COc1ccc(C(=O)/C=C/Nc2ccc(C)cn2)cc1OC", "IC50", "> 100 µM (inactive)"],
  ["Cc1ccc(-c2nc3sc(C(N)=O)c(N)c3c3c2CCCC3)cc1", "IC50", "> 100 µM (inactive)"],
  ["C=CCN1C(C(=O)c2ccccc2)=C(OC(=O)COc2ccccc2)c2ccccc2S1(=O)=O", "IC50", "43.1 µM"],
  ["Cn1cccc1C(=O)NC(=O)CSc1cccc[n+]1[O-]", "IC50", "24.3 µM"],
  ["Oc1c(I)cc(I)c2cccnc12", "IC50", "17.1 µM"],
  ["Oc1c(CN2CCN(c3ccccn3)CC2)cc(Cl)c2cccnc12", "IC50", "26.5 µM"],
  ["Oc1c(CN2CCc3ccccc3C2)cc(Cl)c2cccnc12", "IC50", "11.5 µM"],
  ["O=C1c2ccccc2C(=O)N1Cc1ccco1", "IC50", "> 100 µM (inactive)"],
  ["O=Nc1c(O)n(Cc2ccc(Cl)c(Cl)c2)c2ccccc12", "IC50", "43.1 µM"],
  ["CCOc1ccc(/C=C/C(=O)c2cc(Br)ccc(=O)c2O)cc1", "IC50", "16.7 µM"]
]}
